# credit: ChEMBL document CHEMBL4028903

- procedureSummary: AUC (0 to 24 hrs) in Sprague-Dawley rat at 0.3 mg/kg, po qd administered via gavage measured on day 11 by LC-MS/MS analysis
- Format: ADME, organism-based
- Parameters: dose 0.3 mg/kg, time < 24 hr, route oral
- conditionsUsed: in vivo
recordedMetric: AUC at 24 h (µM·h)
// return numeric value only (unit: µM·h, not printed)

In plain terms, O=C(O)c1cc(F)c2nc(N3C4CCC3CC(OCc3c(-c5ccccc5OC(F)(F)F)noc3C3CC3)C4)sc2c1 (stereo unspecified) has a documented AUC at 24 h of 0.19

---

Catalogue of Cmax values
- procedureSummary: Cmax in rat at 10 mg/kg, po administered via gavage by LC-MS/MS analysis
- Type: ADME, organism-based
- Parameters: dose 10 mg/kg, route oral
- conditionsUsed: in vivo
// return numeric value only (unit: nM, not printed)

Solved cases below.
1. O=C(O)c1ccc2nc(N3CCC(OCc4c(-c5ccccc5OC(F)(F)F)noc4C4CC4)CC3)sc2c1	382
2. O=C(O)c1ccc2nc(N3C4CCC3CC(OCc3c(-c5ccccc5OC(F)(F)F)noc3C3CC3)C4)sc2c1 (stereo not drawn)	173
3. O=C(O)c1cc(F)c2nc(N3C4CCC3CC(OCc3c(-c5ccccc5C(F)(F)F)noc3C3CC3)C4)sc2c1 (stereo not drawn)	2110

In plain terms, O=C(O)c1cc(F)c2nc(N3C4CCC3CC(OCc3c(-c5ccccc5OC(F)(F)F)noc3C3CC3)C4)sc2c1 (stereo not drawn) has a documented Cmax of 2280

In plain terms, COc1cc(C(=O)O)cc2sc(N3C4CCC3CC(OCc3c(-c5ccccc5OC(F)(F)F)noc3C3CC3)C4)nc12 (stereo not drawn) has a documented Cmax of 1990

In plain terms, O=C(O)c1cc(F)c2nc(N3C4CCC3CC(OCc3c(-c5ccccc5OC(F)F)noc3C3CC3)C4)sc2c1 (stereo not drawn) has a documented Cmax of 2120

In plain terms, `O=C(O)c1ccc2nc(N3CCC(OCc4c(-c5c(Cl)cccc5Cl)noc4C4CC4)CC3)sc2c1` has a documented Cmax of 44

In plain terms, Cc1cc(C(=O)O)cc2sc(N3C4CCC3CC(OCc3c(-c5ccccc5OC(F)(F)F)noc3C3CC3)C4)nc12 (stereo not drawn) has a documented Cmax of 86

---

- procedureSummary: Cmax in mouse at 10 mg/kg, po administered via gavage by LC-MS/MS analysis
- Assay type: ADME, organism-based
- Parameters: dose 10 mg/kg, route oral
- conditionsUsed: in vivo
recordedMetric: Cmax (nM)
// return numeric value only (unit: nM, not printed)

In plain terms, O=C(O)c1cc(F)c2nc(N3C4CCC3CC(OCc3c(-c5ccccc5OC(F)(F)F)noc3C3CC3)C4)sc2c1 (stereo unspecified) has a documented Cmax of 1190

---

- procedureSummary: AUC (0 to 24 hrs) in Sprague-Dawley rat at 3 mg/kg, po qd administered via gavage measured on day 1 by LC-MS/MS analysis
- Assay type: ADME, organism-based
- Parameters: time < 24 hr, dose 3 mg/kg, route oral
- conditionsUsed: in vivo
recordedMetric: AUC(0-t) at 24 h (µM·h)
// return numeric value only (unit: µM·h, not printed)

In plain terms, O=C(O)c1cc(F)c2nc(N3C4CCC3CC(OCc3c(-c5ccccc5OC(F)(F)F)noc3C3CC3)C4)sc2c1 (stereo unspecified) has a documented AUC(0-t) at 24 h of 1.34

---

- procedureSummary: Extraction ratio in human liver microsomes
- Assay type: ADME, microsome
- conditionsUsed: read-out: ERH
recordedMetric: hepatic extraction ratio
Give the figure only, with no unit attached.

1) O=C(O)c1ccc2nc(N3CCC(OCc4c(-c5c(Cl)cccc5Cl)noc4C4CC4)CC3)sc2c1	0.81
2) COc1cc(C(=O)O)cc2sc(N3C4CCC3CC(OCc3c(-c5ccccc5OC(F)(F)F)noc3C3CC3)C4)nc12 (centres undefined)	0.64

In plain terms, O=C(O)c1ccc2nc(N3CCCC(OCc4c(-c5ccccc5OC(F)(F)F)noc4C4CC4)CC3)sc2c1 (centres undefined) has a documented hepatic extraction ratio of 0.89

---

- procedureSummary: Drug uptake in Sprague-Dawley rat liver at 0.01 mg/kg, po qd administered via gavage measured 1 hr post last dose on day 14 by LC-MS/MS analysis
- Assay type: ADME, organism-based
- conditionsUsed: read-out: Drug uptake
recordedMetric: concentration at 1 h

In plain terms, O=C(O)c1cc(F)c2nc(N3C4CCC3CC(OCc3c(-c5ccccc5OC(F)(F)F)noc3C3CC3)C4)sc2c1 (stereo unspecified) has a documented concentration at 1 h of 8.35 nM

---

- procedureSummary: Clearance in rat at 3 mg/kg, iv by LC-MS/MS analysis
- Format: ADME, organism-based
- conditionsUsed: in vivo
Catalogue of clearance values
// return numeric value only (unit: mL/min/kg, not printed)

1) COc1cc(C(=O)O)cc2sc(N3C4CCC3CC(OCc3c(-c5ccccc5OC(F)(F)F)noc3C3CC3)C4)nc12 (stereo not drawn)	9
2) O=C(O)c1ccc2nc(N3C4CCC3CC(OCc3c(-c5ccccc5OC(F)(F)F)noc3C3CC3)C4)sc2c1 (stereo not drawn)	17
3) Cc1cc(C(=O)O)cc2sc(N3C4CCC3CC(OCc3c(-c5ccccc5OC(F)(F)F)noc3C3CC3)C4)nc12 (stereo not drawn)	14
4) O=C(O)c1cc(F)c2nc(N3C4CCC3CC(OCc3c(-c5ccccc5C(F)(F)F)noc3C3CC3)C4)sc2c1 (stereo not drawn)	11
5) O=C(O)c1ccc2nc(N3CCC(OCc4c(-c5ccccc5OC(F)(F)F)noc4C4CC4)CC3)sc2c1	24
6) O=C(O)c1ccc2nc(N3CCC(OCc4c(-c5c(Cl)cccc5Cl)noc4C4CC4)CC3)sc2c1	50

Continue with the next compound.
In plain terms, O=C(O)c1cc(F)c2nc(N3C4CCC3CC(OCc3c(-c5ccccc5OC(F)F)noc3C3CC3)C4)sc2c1 (stereo not drawn) has a documented clearance of 11

---

- procedureSummary: Cmax in Sprague-Dawley rat at 0.01 mg/kg, po qd administered via gavage measured on day 1 by LC-MS/MS analysis
- Assay type: ADME, organism-based
- Parameters: dose 0.01 mg/kg, route oral
- conditionsUsed: in vivo
recordedMetric: Cmax (nM)
// return numeric value only (unit: nM, not printed)

In plain terms, O=C(O)c1cc(F)c2nc(N3C4CCC3CC(OCc3c(-c5ccccc5OC(F)(F)F)noc3C3CC3)C4)sc2c1 (stereo unspecified) has a documented Cmax of 0.44

---

- procedureSummary: Cmax in Sprague-Dawley rat at 0.1 mg/kg, po qd administered via gavage measured on day 1 by LC-MS/MS analysis
- Format: ADME, organism-based
- Set-up: dose 0.1 mg/kg, route oral
- conditionsUsed: in vivo
recordedMetric: Cmax
Just the number plus its unit, please.

In plain terms, O=C(O)c1cc(F)c2nc(N3C4CCC3CC(OCc3c(-c5ccccc5OC(F)(F)F)noc3C3CC3)C4)sc2c1 (stereo unspecified) has a documented Cmax of 4.6 nM

---

Catalogue of bioavailability values
- procedureSummary: Oral bioavailability in rat at 10 mg/kg administered via gavage by LC-MS/MS analysis
- Format: ADME, organism-based
- conditionsUsed: in vivo
// return numeric value only (unit: %, not printed)

Solved cases below.
1) Cc1cc(C(=O)O)cc2sc(N3C4CCC3CC(OCc3c(-c5ccccc5OC(F)(F)F)noc3C3CC3)C4)nc12 (stereo not drawn)	3
2) O=C(O)c1cc(F)c2nc(N3C4CCC3CC(OCc3c(-c5ccccc5C(F)(F)F)noc3C3CC3)C4)sc2c1 (stereo not drawn)	14
3) O=C(O)c1ccc2nc(N3CCC(OCc4c(-c5c(Cl)cccc5Cl)noc4C4CC4)CC3)sc2c1	6

Continue with the next molecule.
In plain terms, `O=C(O)c1ccc2nc(N3CCC(OCc4c(-c5ccccc5OC(F)(F)F)noc4C4CC4)CC3)sc2c1` has a documented bioavailability of 37

---

- procedureSummary: Volume of distribution at steady state in rat at 3 mg/kg, iv or 1 mg/kg, po administered via gavage by LC-MS/MS analysis
- Format: ADME, organism-based
- conditionsUsed: in vivo, read-out: Vdss
recordedMetric: Vd (L/kg)
// return numeric value only (unit: L/kg, not printed)

In plain terms, O=C(O)c1cc(F)c2nc(N3C4CCC3CC(OCc3c(-c5ccccc5OC(F)(F)F)noc3C3CC3)C4)sc2c1 (stereo unspecified) has a documented Vd of 0.72

---

- procedureSummary: Cmax in Sprague-Dawley rat at 1 mg/kg, po qd administered via gavage measured on day 11 by LC-MS/MS analysis
- Format: ADME, organism-based
- Parameters: dose 1 mg/kg, route oral
- conditionsUsed: in vivo
recordedMetric: Cmax (nM)
// return numeric value only (unit: nM, not printed)

In plain terms, O=C(O)c1cc(F)c2nc(N3C4CCC3CC(OCc3c(-c5ccccc5OC(F)(F)F)noc3C3CC3)C4)sc2c1 (stereo unspecified) has a documented Cmax of 43.1
